Source: patent US20160200799A1

Measured Neutralizing activity (%) at 100 µg/ml of individual entries
- study_system: Influenza virus A/Suita/1/2009pdm (H1N1 2009 pandemic) (Influenza A virus A/Suita/1/2009pdm (H1N1pdm))
- assay: cell-based or functional assay

{"binder": "Group 43 representative clone F081-007, Fab-PP-type antibody (Fab, V domains shown) VH: QVQLQQSGAEVKKPGSSVKVSCKASGGIFRKNAISWVRQAPGQGLEWMGGISAIFGTANYAQKFQGRVTITADESSNTVYMDLSRLRSEDTAIYYCASHPTYHFDKSGYRFDSWGQGTLVTVSS VL: QSVLTQPPSVSAAPGQKVTISCSGSSSNIGNNYVSWYQQLPGTAPKLLIYDNNKRPSGIPDRFSGSKSGTSATLGITGLQTGDEADYYCGTWDSSLSAGVFGGGTKLTVLG", "Neutralizing activity (%) at 100 µg/ml": 100}
{"binder": "Group 52 representative clone F083-328, Fab-PP-type antibody (Fab, V domains shown) VH: QVQLVQSGAEVKKPGSSVKLSCKASGGTLRSYALSWVRQAPGEGLEWMGGISAIFNTATYAQNVQGRVTITADESTNTFYLEVSSLRSDDTAVYYCATSGTYYVSFFDYWGQGTLVTVSS VL: DIVLTQSPSTLSASVGDRVTLTCRASQSIGSLMAWYQQQPGKPPKLLIYRASNLETGVPSRFTGSGSGTEFALTISSLQPDDVGTYYCQHFKTFSRTFGQGTKVEIK", "Neutralizing activity (%) at 100 µg/ml": 100}
{"binder": "Group 51 representative clone F083-302, Fab-PP-type antibody (Fab, V domains shown) VH: QVQLVQSGAEVKKPGSSVKVSCEASGATFSSNAFSWVRQAPGQGPEWMGGIITMFRKAEYAQKFQGRVTITAGELGSTAYMEVRSLTFEDTAVYYCARHSGYHLIGYFDSWGQGTLVTVSS VL: QSVLTQPPSVSAAPGQKVTISCSGTTSNIGNNYVSWYQQLPGAAPKLLIYDNNKRPSGIPDRFSGSKSDTSATLGITGLQTGDEADYYCGTWVSSLSVWVFGGGTKLTVLG", "Neutralizing activity (%) at 100 µg/ml": 100}
{"binder": "Group 55 representative clone F083-305, Fab-PP-type antibody (Fab, V domains shown) VH: EVQLVESGAEVKKPGSSVKVSCKASGSIFSNYAISWVRQAPGQGLEWMGGIVPMFGTTRFAQKFQGRVTITADESRSTAYMELNNLISEDTAVYYCARAPLIYNWYFDLWGRGTLVTVSS VL: EIVLTQSPSFVSASVGDRVSITCRASQGISSWLAWYQQKPGKAPRLLIYGASNLQSGVPSRFSGSGSGTDYTLTINSLQPEDFATYYCQQARTFPVTFGQGTKLEIK", "Neutralizing activity (%) at 100 µg/ml": 88.3}
{"binder": "Group 54 representative clone F083-354, Fab-PP-type antibody (Fab, V domains shown) VH: QVQLVQSGSEVKKPGSSVKVSCKASGGIFNSYGISWVRQAPGQGLEWMGGILAIFGTTNYAQKFQGRVTITADDSSKTVYMELSSLTSEDTAVYYCARGSTYYSSYFDQWGQGTLVTVSS VL: DIQMTQSPSSLSASVGDRVTITCRASQGIRNSLAWYQQKPGQVPKLLIYSATTLRSGVPYRFSGSGSGTDFTLTISGLQPEDVGTYFCHRYDSAPLTFGGGTRVALK", "Neutralizing activity (%) at 100 µg/ml": 100}
{"binder": "Group 2 representative clone F082-220, Fab-PP-type antibody (Fab, V domains shown) VH: QVQLVQSGAEVKKPGSSVKVSCKASGGIFRSNAVSWVRQAPGQGLEWMGGIIAIFGTPKYAQKFQGRVTITADESTSTVYMELSGLRYEDTAVYYCARGPNYYESYFDYWGQGTLVTVSS VL: DIVMTQSPPSLSASVGDRVTITCRASQGISNYLAWYQQKPGKAPKLLIFGASTLHSGVSSRFSGSGSGPDFTLTISSLQPEDAATYYCQKYHSAPLTFGGGTKVEMK", "Neutralizing activity (%) at 100 µg/ml": 85.3}
{"binder": "Group 62 representative clone F083-349, Fab-PP-type antibody (Fab, V domains shown) VH: QVQLVQSGAEVRKPGSSVKVSCKASGVIFIKFAISWVRQAPGQGLEWMGGIIPMFGTTNYAQKFQGRVTITADGSTNTVYMELSSLTSEDTAVYYCAKEEGYYYGSGPLDSWGQGTLVTVSS VL: DIVMTQSPDFLSVSLGERVTINCKSSQTVLNRSNNKNYLAWYQKKPGQPPRLLLYWSSTRESGVPDRFSGSGSETDFALTITNLQAEDLAVYFCQQFYDMPVTFGGGTKLEIK", "Neutralizing activity (%) at 100 µg/ml": 97.1}
{"binder": "Group 58 representative clone F083-307, Fab-PP-type antibody (Fab, V domains shown) VH: QVQLQQSGADVKKPGSSVKVSCKASGGTFGNYAISWVRQAPGQGLEWMGGITPIFGPANYAQRFQGRVTISADISTRTAYMELSSLRSEDTAIYYCARHPTYYFGSAMEYWGQGTLVTVSS VL: SYELTQPPSVSVAPGQTATITCGGDRIGTGPVHWYQQRPGRAPVLIIYGSTHRPSGIPERFSGSKSVNTATLSISGVGVGDEADYYCQVWDTSTAQPIVFGGGTKLTVLS", "Neutralizing activity (%) at 100 µg/ml": 76.6}
{"binder": "Group 56 representative clone F083-318, Fab-PP-type antibody (Fab, V domains shown) VH: EVQLVQSGAEVKKPGSSVKVSCQASGSIFSNYAINWVRQAPGQGLEWMGGIVPIFGTTRFAQKFQGRLTITADEPRSTAYMELNNLISEDTAVYYCARAPLIYNWYYDLWGRGTLVTVSS VL: EIVLTQSPSSLSASVGDRVTITCRASQGISNYLAWYQQKPGKVPKLLIYAASTLQSGVPSRFSGSGSGTDFTLTISSLQPEDVATYYCQKYNSAPHTFGPGTKVDIK", "Neutralizing activity (%) at 100 µg/ml": 13.5}
{"binder": "Group 47 representative clone F083-308, Fab-PP-type antibody (Fab, V domains shown) VH: QVQLVQSGAEVKKPGSSVKVSCKASGGIFRSHAISWVRQAPGQGLEWMGGIIAIFGTTHYAQQFQGRVTITADESTSTVYMELSTLRSEDTAVYYCARGPNYFESYFDNWGQGTLVTVSS VL: EIVLTQSPATLSLSPGERATLSCRASQTISSYLAWYQQKPGQAPRLLIYGASNRATGIPARFSGSGSGTDFTLTINSLEPEDFAVYYCQQRSSWPPITFGQGTRLEIK", "Neutralizing activity (%) at 100 µg/ml": 97.7}
{"binder": "Group 48 representative clone F083-389, Fab-PP-type antibody (Fab, V domains shown) VH: QVQLVQSGAEVKKPGSSVKVSCKASGDIFNKFAITWVRQAPGQGLEWMGGITALFATTSYAQKFQDRVTINWDESTTTAFMELSSLRFEDTAVYYCARGPNYYETYLDNWGQGTLVTVSS VL: EIVLTQSPTILSASVGDRVTITCRASQSISKWLAWYQQKPGKVPKLLIYMASTLESGVPSRFSGSGSGSEFTLTISSLQPGDFATYYCQQYNSYPRTFGQGTKVEINV", "Neutralizing activity (%) at 100 µg/ml": -18.3}
